System: 786-0 renal
test name: NCI-60 one-dose screen, 48 h
measurement context: 10 µM unless noted
The panel holds about 83,000 compounds, 20% with a hit somewhere; the sample as a whole holds those more often. Activity calls are given as the source filed them. Rule for the calls: active = growth percent below 10; inactive = the rest.
Parameter call: string, one of Yes for active, No for inactive

Here's what some known entries look like.
{"columns": ["molecule", "category"],
 "data": [
  ["COc1ccc(-c2nsc3c2NC(=O)CC3c2cccc(OC)c2)cc1 (stereo not given)", "No"],
  ["COc1c(B(O)O)cccc1-c1nc2ccc3[nH]ncc3c2c2c1C1CCC2C1 (stereo not given)", "No"]
]}

stdin: What did this assay record as the result for "O=C1/C=C/[C@@H](O)[C@@H]2C[C@@H](O)C[C@H]2/C=C/CCCCO1" ?
stdout: Yes

stdin: What did this assay record as the result for "N#C/C(=C1\SC(=O)CN1c1ccccc1)c1nc2ccccc2s1" ?
stdout: No

stdin: What did this assay record as the result for CC(=O)SC1CC(=O)C=C2CCC3C4CCC(=O)OC4(C)CCC3C21C (stereo not given) ?
stdout: No

stdin: What did this assay record as the result for COC(=O)[C@H](NC(=O)C1(C)CCC[C@]2(C)[C@H]3C[C@H]4C(C(C)C)=C[C@]3(CC[C@@H]12)[C@@H]1C(=O)CCC(=O)[C@@H]14)C(C)C (stereo not given in full) ?
stdout: No

stdin: What did this assay record as the result for COc1cc(C2C(C#N)=C(N)OC3=C2C(=O)c2ccccc2C3=O)cc(OC)c1O (stereo not given) ?
stdout: No

stdin: What did this assay record as the result for "Cn1nc(C(C)(C)C)cc1NC(=O)Cc1ccc(/C=C2\C(=O)Nc3ccccc32)cc1" ?
stdout: No

stdin: What did this assay record as the result for "O=C(/C=C/c1ccccn1)c1ccc(OCc2nnc(-c3ccc(Cl)cc3)o2)cc1" ?
stdout: Yes
